Just for reference, the NIST ThermoML archive (doi:10.1016/j.fluid.2016.03.009) is where these values come from.

Details: 283.15 K; 101.33 kPa; Liquid; Vibrating tube method
measured_attribute: mass density (kg/m3)
One number for each entry, in kg/m3.

Solved entries (count: 3):
{"compound": "CCC[n+]1cccc(C)c1.O=S(=O)([N-]S(=O)(=O)C(F)(F)F)C(F)(F)F", "val": 1462.43}
{"compound": "CC(O)C(=O)[O-].CCn1cc[n+](C)c1 [1-ethyl-3-methylimidazolium lactate]", "val": 1153.47}
{"compound": "C[n+]1ccn(CCCCS(=O)(=O)O)c1.O=S(=O)([N-]S(=O)(=O)C(F)(F)F)C(F)(F)F", "val": 1597.92}

Moving on to another compound below.
Measured mass density, C[n+]1ccn(CCCCS(=O)(=O)O)c1.O=S(=O)([O-])O [1-methyl-3-(4-sulfobutyl)-imidazolium hydrogensulfate] : 1450.3

----------
Conditions: 298.15 K; 101.33 kPa; Liquid; Vibrating tube method
measured_attribute: mass density (kg/m3)
One number for each entry, in kg/m3.

Solved entries (count: 3):
{"molecule": "CCC[n+]1cccc(C)c1.O=S(=O)([N-]S(=O)(=O)C(F)(F)F)C(F)(F)F", "unit_of_measurement": "kg/m3", "mass density": 1448.03}
{"molecule": "C[n+]1ccn(CCCCS(=O)(=O)O)c1.O=S(=O)([N-]S(=O)(=O)C(F)(F)F)C(F)(F)F", "unit_of_measurement": "kg/m3", "mass density": 1582.58}
{"molecule": "C[n+]1ccn(CCCCS(=O)(=O)O)c1.O=S(=O)([O-])O [1-methyl-3-(4-sulfobutyl)-imidazolium hydrogensulfate]", "unit_of_measurement": "kg/m3", "mass density": 1437.08}

Moving on to another molecule below.
Measured mass density, CC(O)C(=O)[O-].CCn1cc[n+](C)c1 [1-ethyl-3-methylimidazolium lactate] : 1142.46

----------
Conditions: 323.15 K; 101.33 kPa; Liquid; Vibrating tube method
measured_attribute: mass density (kg/m3)
Answers are plain numbers, in kg/m3.

Solved entries (count: 3):
{"molecule": "CCC[n+]1cccc(C)c1.O=S(=O)([N-]S(=O)(=O)C(F)(F)F)C(F)(F)F", "mass density, kg/m3": 1424.43}
{"molecule": "CC(O)C(=O)[O-].CCn1cc[n+](C)c1 [1-ethyl-3-methylimidazolium lactate]", "mass density, kg/m3": 1125.07}
{"molecule": "C[n+]1ccn(CCCCS(=O)(=O)O)c1.O=S(=O)([N-]S(=O)(=O)C(F)(F)F)C(F)(F)F", "mass density, kg/m3": 1559.23}

Moving on to another molecule below.
Measured mass density, C[n+]1ccn(CCCCS(=O)(=O)O)c1.O=S(=O)([O-])O [1-methyl-3-(4-sulfobutyl)-imidazolium hydrogensulfate] : 1420.51

----------
Details: 333.15 K; 101.33 kPa; Liquid; Vibrating tube method
measured_attribute: mass density (kg/m3)
Give bare numbers, in kg/m3.

Solved entries (count: 3):
{"molecule": "C[n+]1ccn(CCCCS(=O)(=O)O)c1.O=S(=O)([O-])O [1-methyl-3-(4-sulfobutyl)-imidazolium hydrogensulfate]", "unit_of_measurement": "kg/m3", "val": 1414.28}
{"molecule": "C[n+]1ccn(CCCCS(=O)(=O)O)c1.O=S(=O)([N-]S(=O)(=O)C(F)(F)F)C(F)(F)F", "unit_of_measurement": "kg/m3", "val": 1550.01}
{"molecule": "CC(O)C(=O)[O-].CCn1cc[n+](C)c1 [1-ethyl-3-methylimidazolium lactate]", "unit_of_measurement": "kg/m3", "val": 1118.51}

Moving on to another molecule below.
Measured mass density, CCC[n+]1cccc(C)c1.O=S(=O)([N-]S(=O)(=O)C(F)(F)F)C(F)(F)F : 1415.16
